Value source: PubChem BioAssay AID1159580

Assay: chemical genetic growth profiling, strain panel (AID 1159580);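 further: tested at 20 µM; growth read once vehicle control cultures reached saturation at 30 °C; 1 = growth at the plate median or of vehicle wells; lower values mean less growth of the strain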
Details: S. cerevisiae deletion strains, growth OD, locus YEL061C, strain CIN8, stronger effect = lower value
In all, about 5,500 compounds went through this assay and about 2,000 (36%) were called active. Another 18% or so got no clear call; they are omitted. Some of the results follow.
Kindly supply the reported normalized growth values for the records listed here.
Lab note: jot down the number only; don't add units.

// normalized growth lookup, key: `COc1ccc2c(c1)OCc1c-2oc2cc(OC)ccc12`
0.666

// normalized growth lookup, key: C=C1C([C@]2(C)C(CC(=O)OC)[C@@](C)(COC(C)=O)OC(=O)C[C@@H]2OC(C)=O)[C@@H](OC=O)[C@H](OC(=O)C(OC(C)=O)C(C)CC)[C@@]2(C)[C@H](c3ccoc3)CC(=O)C12O (stereo not given in full)
1.02

// normalized growth lookup, key: COc1cc(NC(C)CCCN)c2ncccc2c1 (stereo not given)
1

// normalized growth lookup, key: C[C@]12CCC(=O)C=C1CCC1C2CC[C@@]2(C)C1CC[C@@H]2O (stereo not given in full)
1.02

// normalized growth lookup, key: `COc1cc(C(F)(F)F)cc(C(F)(F)F)c1C(=O)Nc1cc(C(F)(F)F)cc(C(F)(F)F)c1`
1.01

// normalized growth lookup, key: C[C@H]1CC2C([C@@H](O)C[C@@]3(C)C2CC[C@]3(O)C(=O)CO)[C@@]2(C)C=CC(=O)C=C12 (stereo not given in full)
0.993

// normalized growth lookup, key: `CCCCNc1cc(C(=O)O)cc(S(N)(=O)=O)c1Oc1ccccc1`
0.994

// normalized growth lookup, key: `COc1ccc2cc([C@H](C)CO)ccc2c1`
0.987

// normalized growth lookup, key: COCCc1ccc(OCC(O)CNC(C)C)cc1 (stereo not given)
1.01

// normalized growth lookup, key: `COP(=O)(OC)OC=C(Cl)Cl`
0.989

// normalized growth lookup, key: `CCOC(=O)C(=CNc1ccccc1N1CCOCC1)C(=O)OCC`
1

// normalized growth lookup, key: `COC(=O)c1sccc1OC(=O)c1c(F)cccc1F`
1.01

// normalized growth lookup, key: `Cc1c(O)c(C(=O)CC(C)C)c2oc3c(C(=O)CC(C)C)c(O)c(C)c(O)c3c2c1O`
1.01

// normalized growth lookup, key: `CC(=O)N[C@@H](CC(C)C)C(=O)O`
0.993

// normalized growth lookup, key: `N[C@@H](C(=O)O)c1ccccc1`
1

// normalized growth lookup, key: `CCOC(=O)C1CCN(C(=S)Nc2ccccc2C(F)(F)F)CC1`
0.998

// normalized growth lookup, key: `Cc1cccc(Cn2c(C)c(C)c(S(=O)(=O)c3ccccc3)c2N)c1C`
0.998

// normalized growth lookup, key: CC1(C)C(C=C(Cl)Cl)C1C(=O)OC(C#N)c1cccc(Oc2ccccc2)c1 (stereo not given)
0.999

// normalized growth lookup, key: CC(C(=O)O)c1cccc(Oc2ccccc2)c1 (stereo not given)
0.973

// normalized growth lookup, key: c1cncc(C2CCCCN2)c1 (stereo not given)
0.999

* * *

Test: chemical genetic growth profiling, strain panel (AID 1159580)
Conditions: S. cerevisiae deletion strains, growth OD, locus YLR039C, strain RIC1, stronger effect = lower value
Screen size: about 5,500 compounds; about 2,000 (36%) were called active. About 18% were inconclusive and are not listed. The list shows a part of the results.
value_kind: normalized growth

// normalized growth lookup, key: `COc1cc2c(cc1OC)C(=O)OC2`
1.02 (inactive)

// normalized growth lookup, key: `CN1CCC(=C2c3ccccc3CC(=O)c3sccc32)CC1`
0.996 (inactive)

// normalized growth lookup, key: `CCOC(=O)C(C)(C)Oc1ccc(Cl)cc1`
0.986 (inactive)

// normalized growth lookup, key: CC(Oc1ccccc1)C(=O)N[C@@H]1C(=O)N2[C@@H]1SC(C)(C)[C@@H]2C(=O)O (some centres undefined)
1.02 (inactive)

* * *

Experiment: chemical genetic growth profiling, strain panel (AID 1159580);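 further: tested at 20 µM; growth read once vehicle control cultures reached saturation at 30 °C; 1 = growth at the plate median or of vehicle wells; lower values mean less growth of the strain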
Conditions: S. cerevisiae deletion strains, growth OD, locus YDR388W, stronger effect = lower value
In all, about 5,500 compounds went through this assay and about 2,000 (36%) were called active. Another 18% or so got no clear call; they are omitted. The list shows a part of the results.
Kindly supply the reported normalized growth values for the records listed here.
Lab note: jot down the number only; don't add units.

// normalized growth lookup, key: CC1(C)C(C=C(Cl)Cl)C1C(=O)OC(C#N)c1cccc(Oc2ccccc2)c1 (stereo not drawn)
1

// normalized growth lookup, key: `COC1=C(OC)C(=O)C(C/C=C(\C)CC/C=C(\C)CC/C=C(\C)CC/C=C(/C)CC/C=C(\C)CC/C=C(\C)CC/C=C(\C)CC/C=C(\C)CC/C=C(\C)CCC=C(C)C)=C(C)C1=O`
1

// normalized growth lookup, key: CC(=O)C1CCC2C3CC(=O)C4=CC(=O)CCC4(C)C3CCC12C (stereo not drawn)
0.983

// normalized growth lookup, key: `Cc1cc(O)c(C=O)c(O)c1C(=O)O`
0.997

// normalized growth lookup, key: CCC(C)C(=O)O[C@H]1[C@H](O)C2C(CN3CC(C)CCC3[C@@]2(C)O)C2C[C@]34O[C@]5(O)C(OC(=O)C(C)(O)C(C)O)CC[C@@]3(C)C5C(OC(C)=O)[C@@H](OC(C)=O)C4[C@@]21O (stereo partly drawn)
1

// normalized growth lookup, key: `S=c1nc[nH]c2nc[nH]c12`
0.999

// normalized growth lookup, key: `COC1=CC(=O)C[C@@H](C)[C@]12Oc1c(Cl)c(OC)cc(OC)c1C2=O`
1

// normalized growth lookup, key: `CC1(C)OC(=O)NC1=O`
0.98

* * *

Experiment: chemical genetic growth profiling, strain panel (AID 1159580);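 further: tested at 20 µM; growth read once vehicle control cultures reached saturation at 30 °C; 1 = growth at the plate median or of vehicle wells; lower values mean less growth of the strain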
Details: S. cerevisiae deletion strains, growth OD, locus YHR129C, strain ARP1, stronger effect = lower value
Screen size: about 5,500 compounds; about 2,000 (36%) were called active. Not shown: some 18% with an inconclusive outcome. This is one part of the list.
value_kind: normalized growth
Lab note: jot down the number only; don't add units.

// normalized growth lookup, key: `COc1cc2c(cc1OC)Cc1cc(OC)c(OC)cc1Cc1cc(OC)c(OC)cc1C2`
1.01

// normalized growth lookup, key: `CC(=O)N[C@@H](CC(C)C)C(=O)O`
0.992

// normalized growth lookup, key: CCC(=O)O[C@H]1CCC2C3CCC4=CC(=O)CC[C@]4(C)C3CC[C@@]21C (stereo partly drawn)
0.943

* * *

Test: chemical genetic growth profiling, strain panel (AID 1159580);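 further: tested at 20 µM; growth read once vehicle control cultures reached saturation at 30 °C; 1 = growth at the plate median or of vehicle wells; lower values mean less growth of the strain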
Conditions: S. cerevisiae deletion strains, growth OD, locus YJL164C, strain tpk1, stronger effect = lower value
In all, about 5,500 compounds went through this assay and about 2,000 (36%) were called active. Roughly 18% stayed inconclusive and do not appear here. The list shows a part of the results.
value_kind: normalized growth
Lab note: jot down the number only; don't add units.

// normalized growth lookup, key: `NC(=O)c1ccc[n+]([C@@H]2O[C@H](COP(=O)([O-])OP(=O)(O)OC[C@H]3O[C@@H](n4cnc5c(N)ncnc54)[C@H](O)[C@@H]3O)[C@@H](O)[C@H]2O)c1`
1.05

// normalized growth lookup, key: `COc1ccc2c(c1OC)C(=O)O[C@H]2[C@H]1c2cc3c(cc2CCN1C)OCO3`
0.991

// normalized growth lookup, key: `CC1=C(/C=C/C(C)=C/C=C/C(C)=C/C=C/C=C(C)/C=C/C=C(C)/C=C/C(=O)[C@]2(C)C[C@@H](O)CC2(C)C)C(C)(C)C[C@H](O)C1`
1.02

// normalized growth lookup, key: `c1ccc(N=Nc2ccccc2)cc1`
0.996

// normalized growth lookup, key: CC1=C(CC(=O)O)c2cc(F)ccc2/C1=C\c1ccc(S(C)=O)cc1 (stereo not drawn)
1.01

// normalized growth lookup, key: CC1=C(/C=C/C(C)=C/C=C/C(C)=C/C=C/C=C(C)/C=C/C=C(C)/C=C/C2=C(C)C(=O)C(O)CC2(C)C)C(C)(C)CC(O)C1=O (stereo not drawn)
1.02

// normalized growth lookup, key: ClC1=C(Cl)C2(Cl)C3C(Cl)C=CC3C1(Cl)C2(Cl)Cl (stereo not drawn)
0.953

// normalized growth lookup, key: CC(CCc1ccccc1)NC(C)C(O)c1ccc(O)cc1 (stereo not drawn)
0.992

// normalized growth lookup, key: `CC(C)(O)[C@@H]1[C@H]2OC(=O)[C@@H]1[C@]1(O)C[C@H]3O[C@]34C(=O)O[C@H]2[C@]14C`
0.999

// normalized growth lookup, key: CCCCCCCCNC(C)C(O)c1ccc(SC(C)C)cc1 (stereo not drawn)
0.0551

// normalized growth lookup, key: `COP(=O)(OC)OC=C(Cl)Cl`
0.992

// normalized growth lookup, key: `CCC(=O)O[C@H]1[C@H](O[C@@H]2[C@@H](C)[C@H](O[C@H]3C[C@@](C)(OC)[C@@H](O)[C@H](C)O3)[C@@H](C)C(=O)O[C@H](CC)[C@@](C)(O)[C@H](O)[C@@H](C)C(=O)[C@H](C)C[C@@]2(C)O)O[C@H](C)C[C@@H]1N(C)C`
0.832

// normalized growth lookup, key: `COc1ccc2c(c1OC)C(=O)O[C@@H]2[C@H]1c2cc3c(cc2CCN1C)OCO3`
0.984
